# tested.target: GST-CNBP (isoform 1, WT) (mouse, UniProt P53996 1-178)
# Sequence (P53996 whole entry, canonical isoform): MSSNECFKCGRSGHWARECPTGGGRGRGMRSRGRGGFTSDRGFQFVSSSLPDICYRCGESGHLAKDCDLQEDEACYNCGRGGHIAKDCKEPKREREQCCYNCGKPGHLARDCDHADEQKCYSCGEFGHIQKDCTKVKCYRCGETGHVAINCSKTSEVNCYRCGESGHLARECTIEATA
# test.description: EMSA
reported.property: binding result

For orientation, consider the following solved cases.
binder: AAATTAGT probe (il-12b, ccl5, cnbp) (dsDNA) DNA 1: AAATTAGT DNA 2: ACTAATTT
result: binds
//
binder: Mut.6 (dsDNA) DNA 1: CTGGGGGA DNA 2: TCCCCCAG
result: no binding
//
binder: CTGAAAAA probe (il-6, il-1b, ccl9, cnbp) (dsDNA) DNA 1: CTGAAAAA DNA 2: TTTTTCAG
result: binds
//
binder: NF-κB probe (dsDNA) DNA 1: AATGTGGGATTTTCCCATGA DNA 2: TCATGGGAAAATCCCACATT
result: no binding
//
binder: AAATTAGA probe (il-6, ccl4) (dsDNA) DNA 1: AAATTAGA DNA 2: TCTAATTT
result: binds
//
binder: AGTTGAGA probe (ccl4) (dsDNA) DNA 1: AGTTGAGA DNA 2: TCTCAACT
result: binds

Please turn your attention to the following entry.
// query binding result value for entry GGAGGAGAGAGAGAGAGAGAGAGAGA (mixed) [G-rich 26-nt (strandedness in assay not stated; antisense S140 also listed)] binds
